Every entry's value here was drawn from paper PMC9202104.

Give IC50 for every item shown.
Tested on: DENV-4-PR-06-65-740
Assay: Plaque assay, inhibition of DENV-4 infection in LLC-MK2 cells
Type: cell-based
Conditions: Dengue virus, DENV4
Your answer is read as nM, so omit the unit and give the number.

Sample Cc1cc2c(C(C)C)c(O)c(O)c(C=O)c2c(O)c1-c1c(C)cc2c(C(C)C)c(O)c(O)c(C=O)c2c1O [Gossypol, reference compound] ; IC50 observed: 2830

IC50 for Cc1cc2c(C(C)C)c(O)c(O)c(/C=N/n3c(=O)[nH][nH]c3=O)c2c(O)c1-c1c(C)cc2c(C(C)C)c(O)c(O)c(/C=N/n3c(=O)[nH][nH]c3=O)c2c1O is 2980
